- ASSAY TEXT: The drug is tested on Z-007 corresponding to rat gut metagenome with ENA study accession number: PRJEB37062 and ENA sample accession number: ERS12561807 for biotransformation under anaerobic condition. The drug concentrations were measured over 9 timepoints collected between 0 and 24 hours of incubation by liquid-chromatography-coupled mass spectrometry (LC–MS); further: call rule not given here
- STUDY CONDITIONS: 2 µM
TEST READOUT: Bacterial Biotransformation

Here are 5 molecules together with their reported answers.
[
  {
    "MOLECULE": "CC1=C(CC(=O)O)c2cc(F)ccc2/C1=C\\c1ccc([S+](C)[O-])cc1 (stereo not drawn)",
    "RESULT": "Compound NOT metabolized"
  },
  {
    "MOLECULE": "CC(C)c1c(CN(C)C(C)Cc2ccccc2)n(C)n(-c2ccccc2)c1=O (stereo not drawn)",
    "RESULT": "Compound metabolized"
  },
  {
    "MOLECULE": "CCCC(C)(COC(N)=O)COC(=O)NC(C)C (stereo not drawn)",
    "RESULT": "Compound NOT metabolized"
  },
  {
    "MOLECULE": "N=C(N)NC(=O)Cc1c(Cl)cccc1Cl",
    "RESULT": "Compound NOT metabolized"
  },
  {
    "MOLECULE": "CN1CCC(=C2c3ccccc3CC(=O)c3sccc32)CC1.O=C(O)/C=C/C(=O)O [KETOTIFEN FUMARATE]",
    "RESULT": "Compound NOT metabolized"
  }
]

Incoming: Which measured Bacterial Biotransformation value corresponds to O=C1N=C([O-])NC1(c1ccccc1)c1ccccc1.[Na+] [PHENYTOIN SODIUM] ?
Outgoing: Compound NOT metabolized

Incoming: // lookup Bacterial Biotransformation for `O=C1CC2(CCCC2)CC(=O)N1CCCCN1CCN(c2ncccn2)CC1`
Outgoing: Compound NOT metabolized

Incoming: Which Bacterial Biotransformation is reported for this molecule? `O=C(CCCN1CCC2(CC1)C(=O)NCN2c1ccccc1)c1ccc(F)cc1`
Outgoing: Compound NOT metabolized
